Data origin: patent US20200317779A1

# measured.target: recombinant cynomolgus monkey CD3ε/δ heterodimer (cynomolgus monkey) (UniProt Q95LI5)
# Sequence (Q95LI5 22-117, stated change not applied, chain 1 of 2): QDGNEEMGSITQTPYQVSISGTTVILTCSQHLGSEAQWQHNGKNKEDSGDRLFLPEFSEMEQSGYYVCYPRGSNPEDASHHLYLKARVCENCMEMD
# Sequence (Q95LI8 22-105, stated change not applied, chain 2 of 2, further chain): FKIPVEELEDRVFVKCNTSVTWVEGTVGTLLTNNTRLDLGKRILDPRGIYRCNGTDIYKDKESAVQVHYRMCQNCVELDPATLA
# assay.protocol: BLI (Octet), antigen on anti-Penta His sensor, antibody 50 nM
pKd: −log10 of the molar value.
readout.type: pKd

>>> meas_value("D07 (antibody, human IgG1, lambda, L234A L235A, V domains shown) VH: EVQLVESGGGLVQPGGSLKLSCAASGFTFNTYAMNWVRQASGKGLEWVGRIRSKYNNYATYYADSVKDRFTISRDDSQSTLYLQMNSLKTEDTAVYYCVRHGNFGNSYVSWFAYWGQGTLVTVSS VL: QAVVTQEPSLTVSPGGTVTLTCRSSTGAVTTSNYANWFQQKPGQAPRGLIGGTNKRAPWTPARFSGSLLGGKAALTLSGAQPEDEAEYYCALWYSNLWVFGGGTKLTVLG")
7.70
>>> meas_value("B16 (antibody, human IgG1, lambda, L234A L235A, V domains shown) VH: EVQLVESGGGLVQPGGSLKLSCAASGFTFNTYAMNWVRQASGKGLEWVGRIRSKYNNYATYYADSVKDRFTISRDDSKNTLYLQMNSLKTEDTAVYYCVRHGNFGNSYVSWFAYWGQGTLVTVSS VL: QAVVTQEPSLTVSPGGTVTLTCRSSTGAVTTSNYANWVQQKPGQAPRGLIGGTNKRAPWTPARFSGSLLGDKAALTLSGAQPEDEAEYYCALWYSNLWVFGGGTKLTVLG")
9.18
>>> meas_value("A15 (antibody, human IgG1, lambda, L234A L235A, V domains shown) VH: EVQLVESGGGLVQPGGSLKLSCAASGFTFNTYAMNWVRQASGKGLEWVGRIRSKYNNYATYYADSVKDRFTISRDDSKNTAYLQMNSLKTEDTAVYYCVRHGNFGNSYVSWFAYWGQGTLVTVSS VL: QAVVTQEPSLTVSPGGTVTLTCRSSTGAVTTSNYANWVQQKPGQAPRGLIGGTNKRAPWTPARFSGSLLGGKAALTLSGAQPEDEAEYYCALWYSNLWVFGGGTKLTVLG")
9.44
